Known Fold Increase over WT PD-L1 ECD-Fc of a selection of binders
STUDY_SYSTEM: human PD-1 stably expressed on Jurkat/IL-2 reporter cells (Jurkat/PD-1 cells) (human, UniProt Q15116 25-288)
Sequence (Q15116 25-288): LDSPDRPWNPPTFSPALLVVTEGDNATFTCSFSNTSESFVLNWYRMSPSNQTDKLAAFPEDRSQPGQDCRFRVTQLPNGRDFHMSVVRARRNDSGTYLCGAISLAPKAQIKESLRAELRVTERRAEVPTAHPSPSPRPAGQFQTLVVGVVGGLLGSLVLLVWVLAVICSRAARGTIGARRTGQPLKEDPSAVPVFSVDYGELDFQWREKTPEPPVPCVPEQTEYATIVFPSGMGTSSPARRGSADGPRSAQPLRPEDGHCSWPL
METHOD_DESCRIPTION: flow cytometry, Jurkat/PD-1 cells
Number in fold, nothing else.

Some solved entries appear below for comparison.
BINDER	Fold Increase over WT PD-L1 ECD-Fc / fold
variant PD-L1 ECD-Fc N45D, Q89R, I98V (Fc fusion, not shown: a dimerising Fc or GST) FTVTVPKDLYVVEYGSNMTIECKFPVEKQLDLAALIVYWEMEDKDIIQFVHGEEDLKVQHSSYRQRARLLKDQLSLGNAALQITDVKLRDAGVYRCMVSYGGADYKRITVKVNAPYNKINQRILVVDPVTSEHELTCQAEGYPKAEVIWTSSDHQVLSGKTTTTNSKREEKLFNVTSTLRINTTTNEIFYCTFRRLDPEENHTAELVIPELPLAHPPNER	18.1
variant PD-L1 ECD-Fc N45D, T163I, K167R, R195G (Fc fusion, not shown: a dimerising Fc or GST) FTVTVPKDLYVVEYGSNMTIECKFPVEKQLDLAALIVYWEMEDKDIIQFVHGEEDLKVQHSSYRQRARLLKDQLSLGNAALQITDVKLQDAGVYRCMISYGGADYKRITVKVNAPYNKINQRILVVDPVTSEHELTCQAEGYPKAEVIWTSSDHQVLSGKTTITNSRREEKLFNVTSTLRINTTTNEIFYCTFRGLDPEENHTAELVIPELPLAHPPNER	26.7

Please look at the following binder next.
Asked: Determine its reported Fold Increase over WT PD-L1 ECD-Fc: variant PD-L1 ECD-Fc E27D, N45D, T183A, I188V (Fc fusion, not shown: a dimerising Fc or GST) FTVTVPKDLYVVEYGSNMTIECKFPVDKQLDLAALIVYWEMEDKDIIQFVHGEEDLKVQHSSYRQRARLLKDQLSLGNAALQITDVKLQDAGVYRCMISYGGADYKRITVKVNAPYNKINQRILVVDPVTSEHELTCQAEGYPKAEVIWTSSDHQVLSGKTTTTNSKREEKLFNVTSTLRINATTNEVFYCTFRRLDPEENHTAELVIPELPLAHPPNER
Given back: 26.6
